System: HCT-116
Assay: Inhibition of clonogenicity in human HCT-116 cells assessed as reduction in size of colony incubated for 72 hrs followed by culturing in fresh compound-free medium for 7 days by crystal violet staining based analysis
Format: functional, cell-based
pEC50: −log10 of the molar value.
Label scheme for pEC50: lower than 5 is NOT MET, 5 and above is MET.

Here's what some known entries look like.
{"substance.smiles": "Cc1ccc(S(=O)(=O)Nc2ccc(-c3nc4cc(NS(=O)(=O)c5ccc(C)cc5)ccc4o3)cc2)cc1", "test.system": "HCT-116", "class.assignment": "NOT MET"}
{"substance.smiles": "COc1ccc(S(=O)(=O)Nc2ccc3oc(-c4ccc(NC(=O)c5cccc(C)c5[N+](=O)[O-])cc4)nc3c2)cc1", "test.system": "HCT-116", "class.assignment": "MET"}

Next up:
Exam item: Is pEC50 for COc1ccc(S(=O)(=O)Nc2ccc3oc(-c4ccc(NC(=O)c5ccc(Cl)s5)cc4)nc3c2)cc1 at or above 5?
Marked response: MET
